For each of the molecules below, state its MIC.
# System: Proteus mirabilis
# test-details: Inhibition of Proteus mirabilis NDM1 assessed as potentiation of meropenem-induced antibacterial activity by measuring meropenem MIC at 64 ug/ml after 16 to 18 hrs by broth microdilution method (reference value: 20 to 160 ug/ml)

// Input: `CCCCCCNC(=S)S` . Output its MIC only.
0.25 µg/mL

Quickly give me recorded MIC for `S=C([S-])N1CCCC1.[Na+]`
2 to 8 µg/mL

Return MIC (reported value) for this molecule: `CCCCCCN(CCCCCC)C(=S)S`
8 to 16 µg/mL

Give MIC for CCN(CC)C(=S)[S-].[Na+] [DITIOCARB SODIUM]
0.5 to 4 µg/mL

Please give measured MIC of the following entry: `S=C(S)N1CCOCC1`
16 µg/mL

Annotate the molecule `CCCCCCCCN(CCCCCCCC)C(=S)S` with its measured MIC.
2 to 4 µg/mL

Fill in reported MIC for this entry: `S=C([S-])N1CCCCC1.[Na+]`
4 to 16 µg/mL

Let me know recorded MIC for `S=C(S)N1CCN(C(=S)S)CC1` , thanks.
4 to 8 µg/mL

* * *

experimental-readout: MIC

State measured MIC of the molecule `S=C([S-])N1CCCCC1.[Na+]` with Beta-lactamase NDM-1 (Escherichia coli) (UniProt E5KIY2).
0.25 µg/mL

Send back Beta-lactamase NDM-1 (Escherichia coli) (UniProt E5KIY2) MIC of `S=C(S)N1CCN(C(=S)S)CC1` only.
8 to 16 µg/mL

State the measured MIC (Beta-lactamase NDM-1 (Escherichia coli) (UniProt E5KIY2)) of `CCCCCCCCN(CCCCCCCC)C(=S)S`
4 to 16 µg/mL

Print Beta-lactamase NDM-1 (Escherichia coli) (UniProt E5KIY2) MIC for CCN(CC)C(=S)[S-].[Na+] [DITIOCARB SODIUM] .
1 to 16 µg/mL

Give MIC for `CCCCCCN(CCCCCC)C(=S)S` tested on Beta-lactamase NDM-1 (Escherichia coli) (UniProt E5KIY2).
8 µg/mL

Recall the reported MIC of `CCCCCCNC(=S)S` on Beta-lactamase NDM-1 (Escherichia coli) (UniProt E5KIY2) and write it down.
16 µg/mL

Specify the recorded MIC for `S=C([S-])N1CCCC1.[Na+]` , system: Beta-lactamase NDM-1 (Escherichia coli) (UniProt E5KIY2).
2 µg/mL

Fill in: MIC on Beta-lactamase NDM-1 (Escherichia coli) (UniProt E5KIY2), entry `S=C(S)N1CCOCC1`
8 µg/mL

* * *

# System: Citrobacter freundii
# test-details: Inhibition of Citrobacter freundii NDM1 assessed as potentiation of meropenem-induced antibacterial activity by measuring meropenem MIC at 64 ug/ml after 16 to 18 hrs by broth microdilution method (reference value: 20 ug/ml)
Activity calls are given as the source filed them. The calls are words filed in the database; no cut-off is given here.
experimental-readout: MIC

Solved cases below.
Jot down MIC (Citrobacter freundii) of `S=C(S)N1CCN(C(=S)S)CC1` .
2 µg/mL

Param request: MIC | system Citrobacter freundii | item `CCCCCCNC(=S)S`
inactive

Please report MIC with Citrobacter freundii for item `S=C(S)N1CCOCC1` .
2 µg/mL

With Citrobacter freundii as the test system, provide measured MIC for this compound: `CCCCCCCCN(CCCCCCCC)C(=S)S`
4 µg/mL

---
State measured MIC of the compound CCN(CC)C(=S)[S-].[Na+] [DITIOCARB SODIUM] with Citrobacter freundii.
< 0.0312 µg/mL

Please tell me the measured MIC for `CCCCCCN(CCCCCC)C(=S)S` ; system: Citrobacter freundii.
8 µg/mL

Please indicate recorded MIC of `CCCCCCCCCCCCCCNC(=S)S` measured with Citrobacter freundii.
inactive

* * *

# System: Escherichia coli
# test-details: Inhibition of Escherichia coli IMP4 assessed as potentiation of meropenem-induced antibacterial activity by measuring zone of inhibition at 10 uL after 16 to 18 hrs by disc diffusion method (reference value: 9.8 +/- 0.6 millimeter)
Activity calls are given as the source filed them. The rule behind the calls is not given here.
experimental-readout: inhibition zone (IZ)

Observe how each entry below is paired with its result.
Look up and state reported inhibition zone (IZ) for `CCCCCCN(CCCCCC)C(=S)S`
inactive

Identify inhibition zone (IZ) associated with the compound `S=C(S)N1CCN(C(=S)S)CC1`
inactive

Look up inhibition zone (IZ) of `CCCCCCNC(=S)S` and report it.
inactive

Identify inhibition zone (IZ) associated with the compound `S=C([S-])N1CCCC1.[Na+]`
22.8 mm

State its inhibition zone (IZ): `CCCCCCCCCCCCCCNC(=S)S`
inactive

Continuing:
Using known records, supply inhibition zone (IZ) for `O=C(O)CN1CCN(CC(=O)O)CCN(CC(=O)O)CC1`
20.3 mm

Let me know recorded inhibition zone (IZ) for CCN(CC)C(=S)[S-].[Na+] [DITIOCARB SODIUM] , thanks.
17.2 mm

Specify reported inhibition zone (IZ) for the compound shown: `S=C([S-])N1CCCCC1.[Na+]`
24.2 mm

Return the recorded inhibition zone (IZ) value; entry: `CCCCCCCCN(CCCCCCCC)C(=S)S`
inactive

* * *

# study-target: Metallo-beta-lactamase NDM-4 (Escherichia coli) (UniProt H6WZS9)
# test-details: Inhibition of Escherichia coli NDM4 assessed as potentiation of meropenem-induced antibacterial activity by measuring zone of inhibition at 10 uL after 16 to 18 hrs by disc diffusion method (reference value: 9.6 +/- 0.5 millimeter)
Calls of active or inactive are those of the source. The rule behind the calls is not given here.
experimental-readout: inhibition zone (IZ)

Entry CCN(CC)C(=S)[S-].[Na+] [DITIOCARB SODIUM] needs its inhibition zone (IZ) filled in; supply it.
18.9 mm

Assign inhibition zone (IZ) to the following record: `S=C([S-])N1CCCC1.[Na+]`
22.1 mm

Provide one value: measured inhibition zone (IZ) of `CCCCCCNC(=S)S`
inactive

Provide measured inhibition zone (IZ) value, entry: `O=C(O)CN1CCN(CC(=O)O)CCN(CC(=O)O)CC1`
22.9 mm

Give the reported value of inhibition zone (IZ) for this record: `S=C([S-])N1CCCCC1.[Na+]`
23.9 mm

Please look at this molecule and report its inhibition zone (IZ): `CCCCCCCCN(CCCCCCCC)C(=S)S`
inactive

Give me measured inhibition zone (IZ), please, for this molecule: `CCCCCCCCCCCCCCNC(=S)S`
inactive

Input `CCCCCCN(CCCCCC)C(=S)S` , output reported inhibition zone (IZ).
inactive

# evaluate next
Complete the entry with inhibition zone (IZ) for `S=C(S)N1CCN(C(=S)S)CC1`
inactive

* * *

Reported MIC values, Beta-lactamase (Klebsiella pneumoniae) (UniProt Q4LDF1).

Name the recorded MIC of the compound listed here: `CCCCCCN(CCCCCC)C(=S)S`
16 µg/mL

Give a short answer stating reported MIC for `CCCCCCNC(=S)S` .
16 µg/mL

Given the compound `S=C(S)N1CCOCC1` , write its reported MIC.
8 to 16 µg/mL

Respond only with MIC recorded for CCN(CC)C(=S)[S-].[Na+] [DITIOCARB SODIUM]
< 2 µg/mL

Answer with the recorded MIC of `S=C([S-])N1CCCCC1.[Na+]` only.
< 0.0312 µg/mL

Check the records and state MIC for `CCCCCCCCN(CCCCCCCC)C(=S)S`
< 1 µg/mL

Specify measured MIC for `S=C([S-])N1CCCC1.[Na+]` .
< 0.0312 µg/mL

Give MIC for `S=C(S)N1CCN(C(=S)S)CC1`
8 to 16 µg/mL
